Target: IDO (Homo sapiens (Human), UniProt P14902)
Sequence (P14902 whole entry): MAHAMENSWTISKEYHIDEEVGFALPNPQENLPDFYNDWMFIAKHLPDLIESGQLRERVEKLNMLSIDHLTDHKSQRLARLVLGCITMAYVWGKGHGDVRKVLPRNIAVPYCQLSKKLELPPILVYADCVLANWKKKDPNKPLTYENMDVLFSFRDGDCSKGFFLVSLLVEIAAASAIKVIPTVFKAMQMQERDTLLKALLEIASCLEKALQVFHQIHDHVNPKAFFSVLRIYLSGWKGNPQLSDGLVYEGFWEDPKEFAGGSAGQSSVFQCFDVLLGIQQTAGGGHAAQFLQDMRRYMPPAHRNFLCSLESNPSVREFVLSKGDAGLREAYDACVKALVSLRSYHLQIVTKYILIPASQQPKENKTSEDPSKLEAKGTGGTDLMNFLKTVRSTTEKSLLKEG
Assay: Kynurenine assay in IFN-γ-stimulated Hela cells
Type: cell-based
Conditions: 20 h, read-out: Hela Kyurenine (IC50)
pIC50: −log10 of the molar value.
Tick True if pIC50 is 6 or greater. Tick False if pIC50 is less than 6.

Has Cc1ccc(NC(=O)Nc2cc(-c3ccc(Cl)c(C(=O)O)c3)ccc2Oc2ccccc2C(C)(C)C)cc1 a recorded pIC50 greater than or equal to 6?
False

Has CC(C)(C)c1ccccc1Oc1ccc(-c2cccc(C(=O)O)c2)cc1NC(=O)Nc1ccccc1 a recorded pIC50 greater than or equal to 6?
False

Has COc1ccc(-c2ccc(Oc3ccccc3C(C)(C)C)c(NC(=O)Nc3ccc(C)cc3)c2)c(C(=O)O)c1 a recorded pIC50 greater than or equal to 6?
True

----------
Biological target: IDO (Homo sapiens (Human), UniProt P14902)
Experiment: LLE_IDO_ABS_DR (IDO assay, method not described)
VALUE TYPE: pIC50
Reminder that pIC50 is minus the log10 of a molar concentration.

# pIC50 (molecule: COc1ccc(-c2ccc(Oc3cccc4c3CCCC4)c(NC(=O)Nc3cccc(C)c3)c2)cc1C(=O)O ) is 6.11

# pIC50 (molecule: COc1ccc(-c2ccc(OC(C(C)C)C(C)C)c(NC(=O)Nc3ccccc3F)c2)cc1C(=O)O ) is 6.09

# pIC50 (molecule: COc1ccc(-c2cnc(Oc3ccccc3C(C)(C)C)c(NC(=O)Nc3ccccc3Cl)c2)cc1C(=O)O ) is 5.95

# pIC50 (molecule: Cc1ccc(NC(=O)Nc2cc(-c3ccccc3C(=O)O)ccc2OC(C(C)C)C(C)C)cc1 ) is 6.14

# pIC50 (molecule: COc1ccccc1NC(=O)Nc1cc(-c2ccc(OC)c(C(=O)O)c2)ccc1Oc1ccccc1C(C)(C)C ) is 5.92

----------
Biological target: UniProt:P14902
Assay: Kynurenine assay in IFN-γ-stimulated Hela cells
Format: cell-based
Details: 20 h, read-out: Hela Kyurenine (IC50)
VALUE TYPE: pIC50
Reminder that pIC50 is minus the log10 of a molar concentration.

Per the reported UniProt:P14902 data, CCCNC(=O)Nc1cc(-c2ccc(OC)c(C(=O)O)c2)ccc1Oc1cccc2c1CCCC2 has pIC50 of 6.04

Per the reported UniProt:P14902 data, CC(C)(C)c1ccccc1Oc1ccc(-c2cc(Cl)cc(C(=O)O)c2)cc1NC(=O)Nc1ccc(C(F)(F)F)cc1 has pIC50 of 5.98

Per the reported UniProt:P14902 data, O=C(Nc1ccc(Cl)cc1)Nc1cc(-c2ccc(C(=O)O)c(Cl)c2)ccc1Oc1ccccc1C(F)(F)F has pIC50 of 6.07
